System: MT4
Experiment: Cytotoxicity against human MT4 cells assessed as reduction in cell viability after 3 days by CellTiter-Glo luminescent assay
Assay type: cell-based
Details: mt4, 72 h
Property: CC50; scope: individual molecules

// worked examples, CC50 included
CC(=O)O[C@H]1[C@@H](OC(C)=O)[C@@]2(C)[C@@H]3CC[C@H]4C(C)(C)[C@@H](O[C@@H]5OC[C@@H](O)[C@H](O)[C@H]5O)CC[C@@]45C[C@@]35CC[C@@]23CO[C@@]2(C(C)(C)O)CC[C@](C)(O2)[C@@H]13 | > 40 µM
CC(=O)O[C@H]1[C@@H](OC(C)=O)[C@@]2(C)[C@@H]3CC[C@H]4C(C)(C)[C@@H](OC(=O)CC(C)CC(=O)O)CC[C@@]45C[C@@]35CC[C@@]23CO[C@@]2(C(C)(C)O)CC[C@](C)(O2)[C@@H]13 (mixture of isomers) | > 20 µM
CC(=O)O[C@H]1[C@@H](OC(C)=O)[C@@]2(C)[C@@H]3CC[C@H]4C(C)(C)[C@@H](OC(C)=O)CC[C@@]45C[C@@]35CC[C@@]23CO[C@@]2(C(C)(C)O)CC[C@](C)(O2)[C@@H]13 | > 40 µM
C[C@@H]1O[C@@H](O[C@H]2[C@H](O[C@H]3CC[C@]45C[C@]46CC[C@]4(C)[C@@H]([C@]7(C)CC[C@@H](C(C)(C)O)O7)[C@@H](O)C[C@@]4(C)[C@@H]6[C@@H](O)C[C@H]5C3(C)C)OC[C@@H](O)[C@@H]2O)[C@H](O)[C@H](O)[C@H]1O | > 40 µM
CC(=O)O[C@H]1[C@@H](OC(C)=O)[C@@]2(C)[C@@H]3CC[C@H]4C(C)(C)[C@@H](OC(=O)CC(C)(C)C(=O)O)CC[C@@]45C[C@@]35CC[C@@]23CO[C@@]2(C(C)(C)O)CC[C@](C)(O2)[C@@H]13 | > 20 µM
CC(=O)O[C@H]1[C@@H](O)[C@@]2(C)[C@@H]3CC[C@H]4C(C)(C)[C@@H](O[C@@H]5OC[C@@H](O)[C@H](O)[C@H]5O)CC[C@@]45C[C@@]35CC[C@@]23CO[C@@]2(C(C)(C)O)CC[C@](C)(O2)[C@@H]13 | > 40 µM
CC1(C)[C@@H](O)CC[C@]23C[C@]24CC[C@]25CO[C@@]6(C(C)(C)O)CC[C@](C)(O6)[C@H]2[C@@H](O)[C@@H](O)[C@@]5(C)[C@@H]4CC[C@@H]13 | > 40 µM
CC(=O)O[C@H]1[C@H](O)[C@H]([C@]2(C)CC[C@@H](C(C)(C)O)O2)[C@@]2(C)CC[C@@]34C[C@@]35CC[C@H](O[C@@H]3OC[C@@H](O)[C@H](O)[C@H]3O)C(C)(C)[C@@H]5CC[C@H]4[C@]12C | > 40 µM

Please report the recorded CC50 for `CC(=O)O[C@H]1[C@@H](OC(C)=O)[C@@]2(C)[C@@H]3CC[C@H]4C(C)(C)C(=O)CC[C@@]45C[C@@]35CC[C@@]23CO[C@@]2(C(C)(C)O)CC[C@](C)(O2)[C@@H]13` .
> 30 µM

Please report the recorded CC50 for `CC(=O)O[C@H]1[C@@H](O)[C@@]2(C)[C@@H]3[C@@H](O)C[C@H]4C(C)(C)[C@@H](O[C@@H]5OC[C@@H](O)[C@H](O)[C@H]5O)CC[C@@]45C[C@@]35CC[C@@]23CO[C@@]2(C(C)(C)O)CC[C@](C)(O2)[C@@H]13` .
> 40 µM

Please report the recorded CC50 for `CC(=O)O[C@H]1[C@@H](OC(C)=O)[C@@]2(C)[C@@H]3CC[C@H]4C(C)(C)[C@@H](OC(=O)CCC(C)(C)C(=O)O)CC[C@@]45C[C@@]35CC[C@@]23CO[C@@]2(C(C)(C)O)CC[C@](C)(O2)[C@@H]13` .
> 5 µM

Please report the recorded CC50 for `CCC(=O)O[C@H]1CC[C@]23C[C@]24CC[C@]25CO[C@@]6(C(C)(C)O)CC[C@](C)(O6)[C@H]2[C@@H](OC(C)=O)[C@@H](OC(C)=O)[C@@]5(C)[C@@H]4CC[C@H]3C1(C)C` .
> 40 µM

Please report the recorded CC50 for `C=C(C)[C@@H]1CC[C@]2(C(=O)O)CC[C@]3(C)[C@H](CC[C@@H]4[C@@]5(C)CC[C@H](OC(=O)CC(C)(C)C(=O)O)C(C)(C)[C@@H]5CC[C@]43C)[C@@H]12` .
15.9 µM

Please report the recorded CC50 for `C[C@@H]1O[C@@H](O[C@H]2[C@H](O[C@H]3CC[C@]45C[C@]46CC[C@]4(C)[C@@H]([C@]7(C)CC[C@@H](C(C)(C)O)O7)[C@@H](O)C[C@@]4(C)[C@@H]6CC[C@H]5C3(C)C)OC[C@@H](O)[C@@H]2O)[C@H](O)[C@H](O[C@@H]2O[C@H](CO)[C@@H](O)[C@H](O)[C@H]2O)[C@H]1O` .
> 40 µM

Please report the recorded CC50 for `CC(=O)O[C@H]1[C@H](O)[C@@]2(C)[C@@H]3CC[C@H]4C(C)(C)[C@@H](O[C@@H]5OC[C@@H](O)[C@H](O)[C@H]5O)CC[C@@]45C[C@@]35CC[C@@]23CO[C@@](C)(CCC(=O)C(C)(C)O)[C@@H]13` .
> 40 µM

Please report the recorded CC50 for `CC(=O)O[C@H]1[C@@H](OC(C)=O)[C@@]2(C)[C@@H]3CC[C@H]4C(C)(C)[C@@H](OC(=O)CC(C)(C)CC(=O)O)CC[C@@]45C[C@@]35CC[C@@]23CO[C@@]2(C(C)(C)O)CC[C@](C)(O2)[C@@H]13` .
> 20 µM

====

Test: Therapeutic index, ratio of CC50 for human MT4 cells to EC50 for HIV1 NL4-3 infected in human MT4 cells
Type: toxicity, cell-based
Conditions: read-out: Ratio CC50/EC50
observation type: selectivity ratio

Please report the recorded selectivity ratio for `CC(=O)O[C@H]1[C@@H](OC(C)=O)[C@@]2(C)[C@@H]3CC[C@H]4C(C)(C)C(=O)CC[C@@]45C[C@@]35CC[C@@]23CO[C@@]2(C(C)(C)O)CC[C@](C)(O2)[C@@H]13` .
< 5

Please report the recorded selectivity ratio for CC(=O)O[C@H]1[C@@H](OC(C)=O)[C@@]2(C)[C@@H]3CC[C@H]4C(C)(C)[C@@H](OC(=O)CC(C)CC(=O)O)CC[C@@]45C[C@@]35CC[C@@]23CO[C@@]2(C(C)(C)O)CC[C@](C)(O2)[C@@H]13 (mixture of isomers) .
< 5

====

Assay: Therapeutic index, ratio of CC50 for human MT4 cells to EC50 for HIV1 NL4-3 infected in human MT4 cells
Format: toxicity, cell-based
Conditions: read-out: Ratio CC50/EC50
observation type: selectivity ratio

// worked examples, selectivity ratio included
C[C@@H]1O[C@@H](O[C@H]2[C@H](O[C@H]3CC[C@]45C[C@]46CC[C@]4(C)[C@@H]([C@]7(C)CC[C@@H](C(C)(C)O)O7)[C@@H](O)C[C@@]4(C)[C@@H]6[C@@H](O)C[C@H]5C3(C)C)OC[C@@H](O)[C@@H]2O)[C@H](O)[C@H](O)[C@H]1O | < 5
CC(=O)O[C@H]1[C@@H](OC(C)=O)[C@@]2(C)[C@@H]3CC[C@H]4C(C)(C)[C@@H](OC(=O)CC(C)(C)CC(=O)O)CC[C@@]45C[C@@]35CC[C@@]23CO[C@@]2(C(C)(C)O)CC[C@](C)(O2)[C@@H]13 | < 5
C=C(C)[C@@H]1CC[C@]2(C(=O)O)CC[C@]3(C)[C@H](CC[C@@H]4[C@@]5(C)CC[C@H](OC(=O)CC(C)(C)C(=O)O)C(C)(C)[C@@H]5CC[C@]43C)[C@@H]12 | 612
CC(=O)O[C@H]1[C@@H]2O[C@@]3(C(C)(C)O[C@H]4O[C@H](CO)[C@@H](O)[C@H](O)[C@H]4O)CC[C@](C)(O3)[C@@H]2[C@@]2(C)CC[C@@]34C[C@@]35CC[C@H](O[C@@H]3OC[C@@H](O)[C@H](O)[C@H]3O)C(C)(C)[C@@H]5CC[C@H]4[C@]12C | 9.4
CCC(=O)O[C@H]1CC[C@]23C[C@]24CC[C@]25CO[C@@]6(C(C)(C)O)CC[C@](C)(O6)[C@H]2[C@@H](OC(C)=O)[C@@H](OC(C)=O)[C@@]5(C)[C@@H]4CC[C@H]3C1(C)C | < 5

Please report the recorded selectivity ratio for `CC(=O)O[C@H]1[C@@H]2O[C@@]3(C(C)(C)O)CC[C@](C)(O3)[C@@H]2[C@@]2(CO)CC[C@@]34C[C@@]35CC[C@H](O[C@@H]3OC[C@@H](O)[C@H](O)[C@H]3O)C(C)(C)[C@@H]5CC[C@H]4[C@]12C` .
< 5

Please report the recorded selectivity ratio for `CC(=O)O[C@H]1[C@@H](OC(C)=O)[C@@]2(C)[C@@H]3CC[C@H]4C(C)(C)[C@@H](OC(=O)CCCC(=O)O)CC[C@@]45C[C@@]35CC[C@@]23CO[C@@]2(C(C)(C)O)CC[C@](C)(O2)[C@@H]13` .
< 5
